test system: NCI-H460 lung; assay: NCI-60 one-dose screen, 48 h (100 = growth as untreated, 0 = no growth, -100 = all killed); conditions: 10 µM unless noted
About 83,000 compounds went through this panel and 20% of them were active in at least one assay; those are over-represented in the sample as a whole.
// values below are reported growth
# unit: % | format: bare number

Past entries and their recorded results:
[
  {
    "compound": "CC(=O)O[C@H](C[C@H](C(C)C)N(C)C(=O)[C@@H](NC(=O)[C@H]1CCCCN1C)C(C)(C)C)c1nc(C(=O)N[C@@H](Cc2ccccc2)C[C@H](C)C(=O)O)cs1",
    "target-under-test": "NCI-H460 lung",
    "quantity-kind": "growth",
    "units": "%",
    "readout-number": 4.25
  },
  {
    "compound": "C#C[C@]1(OC(=O)CCCCCC)CC[C@H]2[C@@H]3CCC4=CC(=O)CC[C@@H]4[C@H]3CC[C@@]21C",
    "target-under-test": "NCI-H460 lung",
    "quantity-kind": "growth",
    "units": "%",
    "readout-number": 21.2
  },
  {
    "compound": "CCN(CC)CCOC(=O)C(OC(C)C)(c1ccccc1)c1ccccc1",
    "target-under-test": "NCI-H460 lung",
    "quantity-kind": "growth",
    "units": "%",
    "readout-number": 100
  },
  {
    "compound": "CC(=O)O[C@H](C[C@H](C(C)C)N(C)C(=O)[C@@H](NC(=O)[C@H]1CCCCN1C)C(C)C)c1nc(C(=O)NC2CCC(C(=O)O)CC2)cs1 (some centres not stated)",
    "target-under-test": "NCI-H460 lung",
    "quantity-kind": "growth",
    "units": "%",
    "readout-number": 26.7
  },
  {
    "compound": "CC(=O)O[C@H](C[C@H](C(C)C)N(C)C(=O)[C@@H](NC(=O)[C@H]1CCCN1C)C(C)C)c1nc(C(=O)N[C@@H](Cc2ccccc2)C[C@H](C)C(=O)O)c(C)s1",
    "target-under-test": "NCI-H460 lung",
    "quantity-kind": "growth",
    "units": "%",
    "readout-number": 5.67
  },
  {
    "compound": "O=c1[nH]c2ccc([N+](=O)[O-])cc2c(=O)o1",
    "target-under-test": "NCI-H460 lung",
    "quantity-kind": "growth",
    "units": "%",
    "readout-number": 103
  }
]

# growth lookup, item CC(=O)ONc1ccc([N+](=O)[O-])c(C(F)(F)F)c1
109
